We begin with a simple list: items and their reported TGI.
# Tested on: NCI-H460 lung
# Test Method Notes: NCI tumour cell line growth inhibition, 48 h

See these solved cases before continuing.
CCCCN(CCCC)CCCn1c(=O)c2c3ccccc3n(C)c2n2nnc(-c3ccccc3)c12 ... > 100 µM
Cc1ccc(NC2=N/C(=C/c3ccccc3)C(Cl)=N2)cc1 ... > 100 µM
O=[N+]([O-])c1c(C=Nc2ccccc2)oc(-c2ccc3c(c2)OCO3)c1-c1ccc2c(c1)OCO2 ... > 100 µM
CCOC(=O)/C(C#N)=C1/C(O)=C(C(=O)OC)C(C(=O)OC)=C1C(=O)OC ... > 100 µM
C/C(=C\COc1c2c(cc3c1CCO3)OC1(C=C2)OC(CC/C(C)=C/COc2c3ccoc3cc3oc(=O)ccc23)C(C)(C)O1)CCC(O)C(C)(C)O (stereo unspecified) ... > 100 µM
Cc1ccc(C(=O)OCC(C)C)cc1N=NN(C)C ... > 100 µM

Would you mind telling me what TGI value was observed for O=C(NO)c1ccc(Cn2c(=O)n(-c3ccccc3F)c(=O)c3ccccc32)cc1 ?
10.4 µM

---

# Test system: PC-3 prostate
# Test Method Notes: NCI tumour cell line growth inhibition, 48 h
Property Label: TGI

Recorded TGI, per entry:
O=c1[nH]c(-n2[nH]c3c(c2=O)CCCC3)nc(O)c1-c1ccccc1 ... > 100 µM
Cn1/c(=N\N=C(\CNCCO)[C@@H](O)[C@@H]2OC(c3ccccc3)OC[C@H]2O)sc2ccccc21 (stereo partly drawn) ... 35.5 µM
COc1cc(S(=O)(=O)Nc2nc(-c3ccc(N4C(=O)/C(=C/c5ccccc5[N+](=O)[O-])N=C4c4ccccc4)cc3)cs2)ccc1Cl ... > 100 µM
CC(=O)O[C@H]1CCC2[C@@H]3CCC4Cc5nc6c(nc5C[C@]4(C)C3CC[C@@]21C)CC1CC[C@@H]2C(CC[C@@]3(C)C2CC[C@@H]3C(C)CCCC(C)C)[C@@]1(C)C6 (stereo partly drawn) ... > 100 µM
N#CS.N=C=S.N=C=S.[Cu+2].[NH2-].[NH2-].[NH2-].[NH2-].c1ccc2ncccc2c1 ... > 100 µM

Need TGI of CN1CC(CNC(=O)OCc2ccccc2)CC2c3cccc4c3c(cn4C)CC21 (stereo not drawn) , thanks.
6.28 µM

Given the entry COC(=O)/C=C\C(C#N)(C#N)N=Cc1ccc(Br)s1 , report its measured TGI.
26.8 µM

Need TGI of CCCCCCCCCCCCCCCCOP(=O)(O)OP(=O)(O)OCC1OC(n2ccc(N)nc2=O)C(O)C1O (stereo not drawn) , thanks.
> 100 µM

Param item = Cc1cn2c(/C=N/N=C(N)N)c(-c3cccnc3)nc2s1 ; retrieve measured TGI.
24.7 µM

Which measured TGI value corresponds to Cc1cc(Oc2ccc3nc(COc4ccc(CC5SC(=O)NC5=O)cc4)n(C)c3c2)cc(C)c1N (stereo not drawn) ?
> 90.1 µM

What measured TGI goes with Clc1ccc(-c2ccc(-c3nn4c(CNc5ccccc5)nnc4s3)o2)c(Cl)c1 ?
> 100 µM

Can you look up the measured TGI of C=CCSSCC=C for me?
> 100 µM

Looking for the measured TGI of CN1CC[C@]2(c3cccc(O)c3)CC(=O)/C(=C/c3ccc(Cl)c(Cl)c3)[C@@H]1C2 , can you help?
1.42 µM

# get_value(readout='TGI', item= O=C(Nc1nc2ccc(F)cc2s1)c1cccnc1Nc1ccc(Cl)cc1 )
> 27.4 µM

Requested read-out: TGI. Entry: CC(=O)[C@@]1(O)[C@H](C)C[C@H]2[C@@H]3C=C(C)C4=Cc5c(cnn5-c5ccccc5)C[C@]4(C)[C@H]3[C@@H](O)C[C@@]21C
10.1 µM

For the compound NC1=NCCN1CC(=O)O , what TGI is on record?
> 10000 µM

Name the recorded TGI for COC(=O)/C=C/c1cn(C(C)=O)c2ccc(Br)cc12 .
> 100 µM

Given CC(C)(C)OC(=O)C1CC[C@@H](CC(=O)Oc2ccc([N+](=O)[O-])cc2)N1 (stereo partly drawn) , state its recorded TGI.
> 100 µM

Given the compound CCC1C(=O)C(O)[C@H]2[C@@H]3C(O)CC4=CC(=O)CC[C@]4(C)[C@H]3CC[C@]12C (stereo partly drawn) , what is its reported TGI?
> 50 µM

Quick one: TGI for O=S(=O)(Nc1cc(Cl)ccc1Cl)c1ccc(-c2cnc(C3CC3)o2)cc1 ?
17 µM

Which TGI value is on record for CC[C@]12C=CCN3CC[C@@]4(c5cc(Br)c(OC)cc5N(C)[C@H]4[C@@](O)(C(=O)N[C@@H](Cc4ccc(O)cc4)C(=O)OC)[C@@H]1O)[C@@H]32 ?
> 100 µM

Report TGI for O=c1c2c3c(sc2nc(N/N=C/c2ccc(Br)cc2)n1Cc1ccccc1)CCCC3 please.
> 100 µM

Report TGI for CNC(=O)Oc1cc(C)c(/C=C/c2cncc(C(=O)NC)c2)c(C)c1 please.
> 25 µM

Return reported TGI; argument: CN(C)CCCNC(=O)c1cncnc1Nc1ccc(OCc2cccc(F)c2)c(Cl)c1
3.11 µM

Quick check: TGI of CCOC(=O)C(NCc1cccc(C(F)(F)F)c1)(NC(=O)CC)C(F)(F)F (stereo not drawn) ?
> 100 µM

Would you mind telling me what TGI value was observed for CC(C)=CCN1c2ccc(Cl)cc2NC(=O)CC1C (stereo not drawn) ?
61.1 µM

# lookup: TGI of CC(=N\N=C\c1ccccn1)/C(C)=N/N=C(C)/C(C)=N/N=C/c1ccccn1
> 100 µM

Need TGI of CC(=O)OCC(OC(C)=O)C(OC(C)=O)C(OC(C)=O)C(C=NN(C(C)=O)S(=O)(=O)c1ccc(/C=C2\NC(=O)NC2=O)cc1)OC(C)=O (stereo not drawn) , thanks.
> 100 µM

# get_value(readout='TGI', item= Nc1c(C(=O)c2ccc(CCCN3CCOCC3)cc2)cnn1-c1ccc(F)cc1 )
> 25 µM

---

Items are presented alongside their recorded GI50.
# System: RXF 393 renal
# Test Method Notes: NCI tumour cell line growth inhibition, 48 h

O=C(Nc1nc2ccc(F)cc2s1)c1cccnc1Nc1ccc(Cl)cc1 ... 33.6 µM
O=S(=O)(Nc1cc(Cl)ccc1Cl)c1ccc(-c2cnc(C3CC3)o2)cc1 ... 1.06 µM
C=C1C(=O)O[C@@H]2C1C[C@@H](O)C(=C)CC/C=C(\C)CCC[C@H](C)[C@H]2OC(C)=O (some centres not stated) ... 4.15 µM

Record request: GI50 value, item C=CN(C)S(C)(=O)=O
> 100 µM

So what does the record say about GI50 for O=C(NN=C1CCCCC1)c1[nH]c2ccc(F)cc2c1-c1ccccc1 ?
98.5 µM

Name the reported GI50 value associated with the molecule CN(C)CCCNC(=O)c1cncnc1Nc1ccc(OCc2cccc(F)c2)c(Cl)c1
1.51 µM

Any idea what GI50 was measured for CC[C@@]1(O)C(=O)OCc2c1cc1n(c2=O)Cc2c-1nc1cc3c(cc1c2C)OCO3 ?
0.000755 µM

---

# System: HT29 colon
# Test Method Notes: NCI tumour cell line growth inhibition, 48 h
Property Label: TGI

CNC(=O)Oc1cc(C)c(/C=C/c2cncc(C(=O)NC)c2)c(C)c1 ... > 25 µM
C[C@H]1[C@H]2[C@H]3CC[C@@H]4[C@@]5(C)C/C(=C/c6cccnc6)C(=O)C(C)(C)[C@@H]5CC[C@@]4(C)[C@]3(C)CC[C@]23CO[C@]1(C)[C@@H](C(=O)/C=C\c1cccnc1)C3 ... 3.73 µM
O=C(NO)c1ccc(Cn2c(=O)n(-c3ccccc3F)c(=O)c3ccccc32)cc1 ... 10.5 µM
O=C(COc1ccc(Cl)c(Cl)c1)N(Cc1ccccc1)Cc1ccc[n+](Cc2ccc(Cl)cc2S(=O)(=O)F)c1 ... > 100 µM
Nc1nc(Nc2ccccc2)sc1C(=O)c1cccs1 ... 18.2 µM

Look up TGI: CN(CC(=O)O)c1ncc2c(n1)-c1ccccc1OC2
> 100 µM

Entry C=CN(C)S(C)(=O)=O : reported TGI = ?
> 100 µM

Item COC(=O)/C=C/c1cn(C(C)=O)c2ccc(Br)cc12 has what recorded TGI?
> 100 µM

Which TGI reading was recorded for the compound COC1CC(NC(=O)C(F)(F)F)C(OC(C)=O)C(C)O1 (stereo not drawn) ?
> 100 µM

Param item = Cc1nn(C)cc1P(=S)(c1ccccc1)c1ccccc1 ; retrieve measured TGI.
> 100 µM

Which TGI reading was recorded for the compound C=C1C(=O)O[C@@H]2C1C[C@@H](O)C(=C)CC/C=C(\C)CCC[C@H](C)[C@H]2OC(C)=O (stereo partly drawn) ?
> 100 µM

---

# Test system: OVCAR-4 ovarian
# Test Method Notes: NCI tumour cell line growth inhibition, 48 h
Property Label: log10 TGI (log10 of the value in µM)
# log10 transformed; quantity=TGI; unit=µM

Some solved entries appear below for comparison.
c1ccc(C(=NNc2cnc3ccccc3n2)c2ccccn2)cc1 ... 1.45
O=C(NN=C1CCCCC1)c1[nH]c2ccc(F)cc2c1-c1ccccc1 ... 1.84
COc1ccc2c(ccc3c(COC(=O)NC(C)C)c(COC(=O)NC(C)C)n(C)c32)c1 ... 1.45

I would be grateful if you could share the reported log10 TGI for COC(=O)/C=C(\S/C(=N\n1cc(C(=O)OC)c(C(=O)OC)c1-c1ccc(C)cc1)c1ccc(C)cc1)C(=O)OC .
0.53

Entry Cc1nn(-c2nc3ccccc3s2)c2c1C(=O)c1ccccc1-2 : reported log10 TGI = ?
1.81

Suppose we examine the molecule CC(O)C1(CNc2cc(Cl)nc(N)n2)CC(CCc2ccccc2)C1 (stereo unspecified) ; what log10 TGI value has been reported?
1.37

Reported log10 TGI, molecule Cc1ccc2[nH]c3c(c2c1)C1CCC(C(C)(C)C)CC1C1C(=O)N(c2ccc4c(c2)OCO4)C(=O)C31 (stereo unspecified) : ____
0.56

Any idea what its log10 TGI is? The molecule is COc1ccc(/C(CC2OC(=O)c3ccccc32)=N\NC(=O)C[N+](C)(C)C)cc1 (stereo unspecified)
1.89

Reported log10 TGI for C=C(C)[C@@H]1CC[C@]2(CO)CC[C@]3(C)[C@H](CC[C@@H]4[C@@]5(C)CCC(NCCc6ccc(O)cc6)C(C)(C)[C@@H]5CC[C@]43C)[C@@H]12 (stereo partly specified) : what is it?
0.50

Dear colleague, I am looking for the recorded log10 TGI of the following molecule: Cc1ccc(/C=C2\Cc3cccc(C)c3C2=O)c(C(=O)O)c1
1.72

Query (molecule): O=C1OC(c2ccccc2)(c2cc(Br)c(O)c(Br)c2)c2ccccc21 (stereo unspecified) ; field requested: log10 TGI
1.90

Name the recorded log10 TGI for CC[C@]12C=CCN3CC[C@@]4(c5cc(Br)c(OC)cc5N(C)[C@H]4[C@@](O)(C(=O)N[C@@H](Cc4ccc(O)cc4)C(=O)OC)[C@@H]1O)[C@@H]32 .
1.60

Returns the measured log10 TGI for the input molecule. Input: CC/C(=C(/c1ccc(O)cc1)c1ccc(OCCN2CCCCC2)cc1)c1ccc(OC)cc1
0.78

# input molecule: CSc1ncnc2c1ncn2C1OC(CO)C(O)OC1O (stereo unspecified) ; wanted: its log10 TGI
1.98

Please give the measured log10 TGI for this molecule: COc1ccc2c(c1OC)OCC(CN(C)C)C2=O (stereo unspecified)
1.78

Data origin: PubChem BioAssay (NCI)
